Molecular target: PIK3CA (human)
Test: Inhibition of A2780 Cell Proliferation

| compound | EC50 |
| --- | --- |
| CC(=O)Nc1cn2cc(-c3cnc(N)c(-c4ccc(F)cc4)c3)ccc2n1 | < 25 µM |
| Nc1ncc(-c2ccc3nc(NC(=O)c4ccc(-n5ccnc5)cc4)cn3c2)cc1C(F)(F)F | < 10 µM |
| CC(=O)Nc1cn2cc(-c3cnc(N)c(OC4CCN(C)CC4)n3)ccc2n1 | < 25 µM |
| CC(=O)Nc1nc2ccc(-c3cnc(N)c(C(F)(F)F)c3)cn2c1C#Cc1ccccn1 | < 10 µM |
| COc1cc(-c2ccc3nc(NC(C)=O)cn3c2C)cnc1N | < 25 µM |
| Nc1ncc(-c2ccc3nc(NC(=O)CCCN4CCOCC4)sc3c2)cn1 | < 10 µM |
| CCN(CC)C(=O)c1cc(-c2ccc3nc(NC(C)=O)cn3c2)cnc1N | < 10 µM |
| Nc1ncc(-c2ccc3nc(NC(=O)CO[C@H]4CCNC4)cn3n2)cc1C(F)(F)F | < 1 µM |
| Nc1ncc(-c2ccc3nc(NC(=O)CCC4CCCCN4)cn3n2)cc1C(F)(F)F (stereo not given) | < 1 µM |
| CC(=O)N1CCC[C@H]1C(=O)Nc1cn2cc(-c3cnc(N)c(C(F)(F)F)c3)ccc2n1 | < 25 µM |
| Nc1ncc(-c2ccc3nc(NC(=O)N4CCC(C(=O)O)C4)cn3c2)cc1C(F)(F)F (stereo not given) | < 25 µM |
| NCC(=O)Nc1cn2nc(-c3cnc(N)c(C(F)(F)F)c3)ccc2n1 | < 1 µM |
| COC(=O)C1CCN(C(=O)Nc2cn3cc(-c4cnc(N)c(C(F)(F)F)c4)ccc3n2)C1 (stereo not given) | < 10 µM |
| CC(=O)Nc1cn2cc(-c3cnc(N)c(-c4cccc(N5CCOCC5)c4)c3)ccc2n1 | < 1 µM |
| CC(=O)Nc1nc2ccc(-c3cnc(N)c(C(F)(F)F)c3)c(C)c2s1 | < 10 µM |
| N#Cc1ccc(C(=O)Nc2cn3cc(-c4cnc(N)c(C(F)(F)F)c4)ccc3n2)cc1 | < 25 µM |
| CC(=O)Nc1nc2cc(F)c(-c3cnc(N)c(C(F)(F)F)c3)cc2s1 | < 25 µM |
| CC(C)(C)OC(=O)N1CCC[C@H]1C(=O)Nc1cn2nc(-c3cnc(N)c(C(F)(F)F)c3)ccc2n1 | < 25 µM |
| CC(=O)Nc1nc2ccc(-c3cnc(N)c(C(F)(F)F)c3)cn2c1C#Cc1ccc(C)cc1 | < 10 µM |
| CC(=O)Nc1nc2cc(C)c(-c3cnc(N)c(C(F)(F)F)c3)cc2s1 | < 25 µM |
| Nc1ncc(-c2ccc3nc(NC(=O)COCc4ccccc4)cn3n2)cc1C(F)(F)F | < 10 µM |
| COc1cccc(-c2cc(-c3ccc4nc(NC(C)=O)cn4n3)cnc2N)n1 | < 10 µM |
| Nc1ncc(-c2ccc3nc(NC(=O)[C@@H]4CCCCN4)cn3c2)cc1C(F)(F)F | < 10 µM |
| CCN1CCC(Oc2nc(-c3ccc4nc(NC(C)=O)cn4c3)cnc2N)CC1 | < 10 µM |
| CC(=O)N1CCCC[C@H]1C(=O)Nc1cn2cc(-c3cnc(N)c(C(F)(F)F)c3)ccc2n1 | < 25 µM |
| C[C@@H](N)C(=O)Nc1cn2nc(-c3cnc(N)c(C(F)(F)F)c3)ccc2n1 | < 10 µM |
| CCOCC(=O)Nc1cn2nc(-c3cnc(N)c(C(F)(F)F)c3)ccc2n1 | < 10 µM |
| CC(=O)Nc1cn2nc(-c3cnc(N)c(-c4ccccc4)c3)ccc2n1 | < 1 µM |
| CC(=O)Nc1cn2cc(-c3cnc(N)c(-c4cccc(C(F)(F)F)c4)c3)ccc2n1 | < 1 µM |
| CC(=O)Nc1cn2cc(-c3cnc(N)c(-c4ccc(N5CCOCC5)cc4)c3)ccc2n1 | < 10 µM |
| CC(=O)Nc1cn2cc(-c3cnc(N)cn3)ccc2n1 | < 25 µM |
| CC(=O)Nc1nc2ccc(-c3cnc(N)c(C(F)(F)F)c3)cn2c1CCc1ccccc1 | < 10 µM |
| CC(=O)Nc1cn2cc(-c3cnc(N)c(C(F)(F)F)c3)cc(F)c2n1 | < 10 µM |
| COCC(=O)Nc1cn2cc(-c3cnc(N)c(OCC(F)(F)F)n3)ccc2n1 | < 1 µM |
| CCN(CC)CCOc1cc(-c2ccc3nc(NC(C)=O)cn3c2)cnc1N | < 25 µM |
| Nc1ccc(-c2ccc3nc(NC(=O)CN4CCOCC4)sc3c2)cn1 | < 25 µM |
| COC(=O)Nc1cn2cc(-c3cnc(N)c(C(F)(F)F)c3)ccc2n1 | < 10 µM |
| CC(=O)Nc1cn2nc(-c3cnc(N)c(Cl)c3)ccc2n1 | < 1 µM |
| CC(=O)Nc1nc2ccc(-c3cnc(N)c(C(F)(F)F)c3)cn2c1C#N | < 1 µM |
| N#Cc1cccc(C(=O)Nc2cn3cc(-c4cnc(N)c(C(F)(F)F)c4)ccc3n2)c1 | < 10 µM |

Origin of values: the Kinase Knowledgebase extract (Sharma et al. 2016)
